- System: UACC-62 melanoma
- PROTOCOL: NCI-60 one-dose screen, 48 h (100 = growth as untreated, 0 = no growth, -100 = all killed)
- COND: 10 µM unless noted
This is part of a sample that, as a whole, favours compounds with a hit. Of some 83,000 tested, about 20% had one in any assay.
Known growth of a selection of molecules
Answer in %, number only, no unit symbol.

// known answers, use as guide
MOLECULE	UNIT ANNOTATION	growth
Cc1ccc(-n2cc(/C=N/NC(=O)c3nc(N)n[nH]3)c(-c3ccc(S(C)(=O)=O)cc3)n2)cc1	%	88.5
O=S(=O)(NCCNc1nccc(-n2cnc3ccccc32)n1)c1ccc(Br)cc1	%	82.8
N#Cc1cccc(NC(=O)c2cc(-c3ccc(F)cc3F)ccc2O)c1	%	-12.9
O=C1Nc2ccccc2/C1=C/c1ccc(CO)n1-c1ccc(Cl)cc1	%	33.9
Nc1nc(N)c2c(n1)NC(c1ccc(Cl)cc1)CC(c1ccc(Nc3nc(NCCO)nc(N4CCOCC4)n3)cc1)=N2 (stereo not given)	%	89.9
N#Cc1cn(Cc2ccc(Cl)cc2Cl)c(C(=O)c2ccc(Br)cc2)c1N	%	82.8
COc1cc(-c2nc(-c3ccccc3)[nH]c2-c2ccnc(NCCCNS(=O)(=O)c3cccc(F)c3)n2)ccc1Cl	%	44.1
NS(=O)(=O)c1ccc(-n2cc(CN3CCCCC3)nn2)cc1	%	97.4

Q: Report growth for CNC(=O)c1c(NC(=O)c2cccc(C(F)(F)F)c2F)sc2c1CCC(=O)C2 tested on UACC-62 melanoma.
Ans: 7.56

Q: Thanks! And NC(N)=Nc1ccc(Oc2cccc(NC(N)=Nc3ccc(Br)cc3)c2)cn1 ?
Ans: 63.2

Q: Note, next up: COc1ccc(CCOc2cc3c(cc2OC)CCN(C(=O)NCc2cocn2)C3c2ccc(C)cc2C)cc1 (stereo not given)
Ans: 24

Q: What do you get for O=C(Nc1nonc1-c1ccccc1)c1ccc(C(F)(F)F)cc1 ?
Ans: 56

Q: Also CCCCc1nc(/C=N/Nc2nc(Nc3ccccc3)nc(Nc3ccc(S(N)(=O)=O)cc3)n2)c(Cl)[nH]1 ?
Ans: 72.8

Q: Proceed to COc1cc(-c2nn(C(C)(C)C)cc2-c2ccnc(NCCCNS(=O)(=O)c3ccc(F)cc3)n2)ccc1Cl
Ans: 72.2

Q: Now this one: CCN(CC)c1cn(-c2ccc(S(N)(=O)=O)cc2)nn1
Ans: 94.9

Q: Now the same for CCc1cccc2c3c(sc12)C(c1ccc(Cl)cc1)C(C#N)=C(/N=C/c1ccc(Cl)cc1)O3 (stereo not given)
Ans: 10.7

Q: Also C[C@H]1c2[nH]c3ccccc3c2C[C@H]2C(=O)N(CCCCCCC(=O)NO)CC(=O)N21 , if possible.
Ans: 69.6

====

Each item that follows carries a reported growth.
- Test system: SK-MEL-28 melanoma
- PROTOCOL: NCI-60 one-dose screen, 48 h (100 = growth as untreated, 0 = no growth, -100 = all killed)
- COND: 10 µM unless noted
About 83,000 compounds went through this panel and 20% of them were active in at least one assay; those are over-represented in the sample as a whole.
Form entry: value (%) — number only.

MOLECULE	growth [%]
CNC1CCc2c(sc(NC(=O)c3ccc(C(C)(C)C)cc3)c2C(N)=O)C1 (centres undefined)	63.2

Q: Given the molecule CNCc1cccc2c1OCCCCCCC(C)(O)CC(C)(C)S(=O)(=O)c1ccc(cc1)-c1cnc(N)c(n1)C(=O)N2 (centres undefined) , what is its reported growth?
Ans: 13.5

Q: Try C#CCNC1CCC(c2csc(C#C)n2)=C1C (centres undefined) next.
Ans: 97

Q: Moving on to COC[C@]12CCC(C)(C)C[C@H]1C1=CC[C@@H]3[C@@]4(C)CCCNC(C)(C)[C@@H]4CC[C@@]3(C)[C@]1(C)CC2
Ans: -79.4
